Data provenance: patent US9011912B2

# assay notes: Solubility test of paliperidone with ionizable compound (citric acid) and amphiphilic compound (SoluPlus)
# Assay type: physicochemical
# conditions used: aqueous with cosolvent or surfactant or cyclodextrin; in 10% Soluplus and 10% Citric Acid Aqueous Solution, room temperature
# Protocol: A solubility test was performed to quantify the synergistic effects provided by the combination of an ionizable polymer and an amphiphilic compound. In this Example the ionizable compound was citric acid and the amphiphilic compound was SoluPlus®.
endpoint: solubility (mg/mL)
Please reply with the bare figure in mg/mL and do not write the unit itself.

Task item: Using the record for Cc1nc2n(c(=O)c1CCN1CCC(c3noc4cc(F)ccc34)CC1)CCCC2O (stereo not shown) , report its solubility.
Reply: 324

---

# assay notes: Solubility test of paliperidone with ionizable compound (citric acid) and amphiphilic compound (SoluPlus)
# Type: physicochemical
# conditions used: aqueous buffer; in 10% Citric Acid Aqueous Solution, room temperature
endpoint: solubility
The answer should read as a number with its unit following.

Task item: Using the record for Cc1nc2n(c(=O)c1CCN1CCC(c3noc4cc(F)ccc34)CC1)CCCC2O (stereo not shown) , report its solubility.
Reply: 241 mg/mL
